- System: SN12C renal
- Test: NCI tumour cell line growth inhibition, 48 h
Reported property: TGI

Guide cases for TGI, answers given:
CCCCCCCCCCCCCCCCC1=CC(=O)C=C(OC)C1=O > 100 µM
O=C1c2ccccc2C(=O)N1/N=C\c1ccc(Br)cc1 > 100 µM
CC(=O)O[C@H]1CC[C@H]2[C@@H]3CCc4cc(O)c(I)cc4[C@H]3CC[C@]12C 37.2 µM

Please find the next compound below.
Requested field: TGI. Item: `CCOC(=O)CSc1nc2ccccc2c(=O)n1N`
> 100 µM

----------
- System: LOX IMVI melanoma
- Test: NCI tumour cell line growth inhibition, 48 h
Reported property: TGI

Guide cases for TGI, answers given:
Molecule	Observed result
O=C1c2ccccc2C(=O)N1/N=C\c1ccc(Br)cc1	> 10 µM
OCCN1CCN(CCO)Cc2ccccc2OCCOc2ccccc2C1	> 100 µM

Requested field: TGI. Item: CC1CCCOc2ccc(cc2)C=Nc2ccc(cc2)CCc2ccc(cc2)N=Cc2ccc(cc2)OCCC1 (stereo not drawn)
> 100 µM

The measured values listed here are drawn from PubChem BioAssay (NCI).
